System: 518A2
Assay explanation: Cytotoxicity against human 518A2 cells after 96 hrs by sulforhodamine-B assay
Format: functional, cell-based
Condition parameters: 518A2, 96 h
Measurement name: EC50 (µM)

INSERT INTO measurements (structure_string, test_target, reported_relation, numeric_result) VALUES
  ('C=CCN(CC(=O)NC(C)(C)C)C(=O)[C@]12CCC(C)(C)C[C@H]1C1=CC[C@@H]3[C@@]4(C)CC[C@H](OC(C)=O)C(C)(C)[C@@H]4CC[C@@]3(C)[C@]1(C)CC2', '518A2', '=', 22.5),
  ('CC(=O)O[C@H]1CC[C@]2(C)[C@H]3CC=C4[C@@H]5CC(C)(C)CC[C@]5(C(=O)N(CC(=O)NC(C)C)Cc5ccoc5)CC[C@@]4(C)[C@]3(C)CC[C@H]2C1(C)C', '518A2', '=', 6.5),
  ('CC(=O)O[C@H]1CC[C@]2(C)[C@H]3CC=C4[C@@H]5CC(C)(C)CC[C@]5(C(=O)N(CC(=O)NCc5ccccc5)Cc5ccoc5)CC[C@@]4(C)[C@]3(C)CC[C@H]2C1(C)C', '518A2', '=', 15.9),
  ('CC(=O)O[C@@H]1C[C@]2(C)[C@H]3CC=C4[C@@H]5CC(C)(C)CC[C@]5(C(=O)OCC(=O)NCc5ccccc5)CC[C@@]4(C)[C@]3(C)CC[C@H]2C(C)(C)[C@H]1OC(C)=O', '518A2', '=', 4.3),
  ('CC(C)N(CC(=O)NCc1ccccc1)C(=O)[C@]12CCC(C)(C)C[C@H]1C1=CC[C@@H]3[C@@]4(C)CC[C@H](O)C(C)(C)[C@@H]4CC[C@@]3(C)[C@]1(C)CC2', '518A2', '>', 30);

// data source = ChEMBL document CHEMBL4196076
